Ref: ChEMBL document CHEMBL1201862

# Test system: SW-620
# EXPERIMENTAL DETAILS: NCI tumour cell line growth inhibition, 48 h
Activity calls are given as the source filed them. Rule as the data show it: active = GI50 up to about 1.1 µM and inactive = higher.
Field 'call' accepts true (1) (active), false (0) (inactive)

Could you please tell me the result logged for OCc1cc2c([nH]c3ccccc32)c(C(O)CO)n1 (stereo not given) in this assay?
false (0)

Check the results log: what was the call for O=C(O)NC(c1ccccc1)C(NC(=O)c1ccccc1)c1ccccc1 (stereo not given) ?
false (0)

Test call for this compound, please: Cc1ccc(C2(C)CC/C(=N/N=C3/CCC(C)(c4ccc(C)c(C)c4)c4cc(C)c(C)cc43)c3cc(C)c(C)cc32)cc1C (stereo not given)
false (0)
